tested on: Bacillus subtilis DB104 (SP-AmyQ fusion secretion); assay: AmyQ secretion efficiency, weighted average sort bin (1 = best secretion, 10 = worst) (bin number (weighted average, 1-10)); higher = lower secretion efficiency
Use T when the recorded AmyQ secretion efficiency is no lower than 6; use F when it is lower.

MKQKRGRKACLILFSFTITTFINTETISAFSN
F
MNLRKILLSSALSLGMLVSAAPVLGTSS
F
MFNRLFRVCFLAALIMAFTLPNSVYYQKP
T
MKKRLIGFLVLVPALIMSGITLKEANKK
T
MYKGWLIQFAVMLSVLSTFTYSASAVGV
F

Ask | Does MKLSVKIAGVLTVAAAAMTAKMYATAKKK have a reported AmyQ secretion efficiency of at least 6?
Reply | F
